System: ECU
assay method text: qHTS profiling for inhibitors of Plasmodium falciparum proliferation (AID 504749); further: nearly all actives have a fitted effect of over 60% in size; further: potency means the concentration at half of the fitted maximal effect
measurement context: P. falciparum in erythrocytes, SYBR Green DNA, 72 h; series mostly up to 28.7 µM
Results filed as inconclusive are left out. The source made the active and inactive calls. The call rests on the fitted dose curve; in most records, active means well fitted inhibition curve with a large enough effect; inconclusive means small, poorly fitted or top-dose-only effect; inactive means flat fitted curve, though single readings scatter.
measured property: Potency

Some entries whose results are on file:
compound	measured property	experimental result
CCCCCN(CCCCC)C(=O)C(CCC(=O)O)NC(=O)c1ccc(Cl)c(Cl)c1 (configuration not stated)	Potency	inactive
CCN(CC)CC(=O)Nc1c(C)cccc1C	Potency	inactive
CCCCNc1c(C(=O)OCC)c(C)nc2c1cnn2CC	Potency	inactive
Fc1ccc(C(c2ccc(F)cc2)N2CCN(C/C=C/c3ccccc3)CC2)cc1	Potency	11.2 µM (active)

I have 3 compounds here; please give me Potency for each one.
1. CC(C)(Oc1ccc(CCNC(=O)c2ccc(Cl)cc2)cc1)C(=O)O
2. OCCN1CCN(CC/C=C2/c3ccccc3Sc3ccc(C(F)(F)F)cc32)CC1
3. COc1ccc(CN(CCN(C)C)c2ccccn2)cc1

Result:
1. inactive
2. 12.6 µM (active)
3. inactive

I have 7 compounds here; please give me Potency for each one.
1. CC(C)NNC(=O)c1ccncc1
2. CCc1cccc(N(C)C(N)=Nc2cccc3ccccc23)c1
3. CC(=O)Nc1nnc(S(N)(=O)=O)s1
4. CN(C)CC[C@@H](c1ccc(Br)cc1)c1ccccn1
5. CCN(CC)CCNC(=O)c1ccc(NC(C)=O)cc1
6. NC(=O)N1c2ccccc2C=Cc2ccccc21
7. CCn1ccnc1CC1COc2ccccc2O1 (configuration not stated)

Result:
1. inactive
2. 7.94 µM (active)
3. inactive
4. inactive
5. inactive
6. inactive
7. inactive

I have 5 compounds here; please give me Potency for each one.
1. CSc1ccc(C(=O)c2[nH]c(=O)[nH]c2C)cc1
2. c1cnc(N2CCN(Cc3ccc4c(c3)OCO4)CC2)nc1
3. CC1=NS(=O)(=O)c2cc(Cl)ccc2N1
4. CC(=O)[C@]1(O)Cc2c(O)c3c(c(O)c2[C@@H](O[C@H]2C[C@H](N)[C@H](O)[C@H](C)O2)C1)C(=O)c1ccccc1C3=O
5. COC(=O)C1=C(C)NC(C)=C(C(=O)OC(C)(C)CN(C)CCC(c2ccccc2)c2ccccc2)C1c1cccc([N+](=O)[O-])c1 (configuration not stated)

Result:
["inactive", "inactive", "inactive", "7.94 µM (active)", "3.16 µM (active)"]

I have 5 compounds here; please give me Potency for each one.
1. CN(C)CCOC(=O)COc1ccc(Cl)cc1
2. CC(C(=O)O)c1ccc(CC2CCCC2=O)cc1 (configuration not stated)
3. C#CCN(C)CCCOc1ccc(Cl)cc1Cl
4. CN(C)C(=O)Oc1ccc[n+](C)c1
5. CNC1(C)C2CCC(C2)C1(C)C (configuration not stated)

Result:
1: inactive; 2: inactive; 3: inactive; 4: inactive; 5: inactive

I have 6 compounds here; please give me Potency for each one.
1. Cc1nc2ccccn2c(=O)c1CCN1CCC(C(=O)c2ccc(F)cc2)CC1
2. CCN(Cc1ccncc1)C(=O)C(CO)c1ccccc1 (configuration not stated)
3. CCCN(CCC)CCc1cccc2c1CC(=O)N2
4. CCCCOCCOCCOCc1cc2c(cc1CCC)OCO2
5. CC(=O)[C@@]1(O)CC[C@H]2[C@@H]3CCC4=CC(=O)CC[C@]4(C)[C@H]3CC[C@@]21C
6. Cc1ccc(Cl)c(Nc2ccccc2C(=O)O)c1Cl

Result:
["inactive", "inactive", "inactive", "inactive", "inactive", "inactive"]

I have 8 compounds here; please give me Potency for each one.
1. O=C(O)CN(CCOCCOCCN(CC(=O)O)CC(=O)O)CC(=O)O
2. CCN(CC)CCNC(=O)c1cc(S(C)(=O)=O)ccc1OC
3. O=C(O)CCCCCCCC(=O)O
4. NC(=O)c1ncn([C@@H]2O[C@H](CO)[C@@H](O)[C@H]2O)c1O
5. CCCOc1ccccc1-c1nc2n[nH]nc2c(=O)[nH]1
6. COc1cc(C(=O)OCCCN2CCCN(CCCOC(=O)c3cc(OC)c(OC)c(OC)c3)CC2)cc(OC)c1OC
7. Cc1nnc(SCC2=C(C(=O)O)N3C(=O)[C@@H](NC(=O)Cn4cnnn4)[C@H]3SC2)s1
8. CCOC(=O)C1=C(C)NC(C)=C(C(=O)OC)C1c1cccc(Cl)c1Cl (configuration not stated)

Result:
inactive
inactive
inactive
inactive
inactive
8.91 µM (active)
inactive
inactive

I have 4 compounds here; please give me Potency for each one.
1. CC(=O)Oc1cc(C(C)C)c(OCCN(C)C)cc1C
2. CCN(CC)CCOCCOC(=O)C1(c2ccccc2)CCCC1
3. CN1CCN(CC(=O)N2c3ccccc3C(=O)Nc3cccnc32)CC1
4. C[N+](C)(C)CCCCCCCCCC[N+](C)(C)C

Result:
1: inactive; 2: 11.2 µM (active); 3: inactive; 4: 10 µM (active)

----------
Test system: ATS189
assay method text: qHTS profiling for inhibitors of Plasmodium falciparum proliferation (AID 504749); further: nearly all actives have a fitted effect of over 60% in size; further: potency means the concentration at half of the fitted maximal effect
measurement context: P. falciparum in erythrocytes, SYBR Green DNA, 72 h; series mostly up to 28.7 µM
Protocol: NIH National Institute of Allergy and Infectious Diseases [NIAID] NIH Chemical Genomics Center [NCGC] […] Because mature erythrocytes lack DNA, only Plasmodium-derived DNA is detected. NCGC Assay Protocol Summary: The SYBR Green viability assay was adapted from a method described previously (Plouffe et al., 2008). […] The following morning, fluorescence intensity at 485(14) nm excitation and 535(25) nm emission wavelengths was measured on an EnVision (Perkin Elmer) plate reader. […]
Records with an inconclusive call do not appear. Activity calls are given as the source filed them. The call rests on the fitted dose curve; in most records, active means well fitted inhibition curve with a large enough effect; inconclusive means small, poorly fitted or top-dose-only effect; inactive means flat fitted curve, though single readings scatter.
measured property: Potency

Some entries whose results are on file:
compound	measured property	experimental result
CC(=O)[C@]1(O)Cc2c(O)c3c(c(O)c2[C@@H](O[C@H]2C[C@H](N)[C@H](O)[C@H](C)O2)C1)C(=O)c1ccccc1C3=O	Potency	5.62 µM (active)
COC(=O)[C@@H](N)Cc1ccc(O)c(O)c1	Potency	inactive
CCN(CC)CCNC(=O)c1ccc(NC(C)=O)cc1	Potency	inactive
CC(C)(Oc1ccc(CCNC(=O)c2ccc(Cl)cc2)cc1)C(=O)O	Potency	inactive
COc1ccc([C@@H]2Sc3ccccc3N(CCN(C)C)C(=O)[C@@H]2OC(C)=O)cc1	Potency	inactive

I have 6 compounds here; please give me Potency for each one.
1. Cc1scc2c1N(C(=O)CN1CCN(C)CC1)c1ccccc1NC2=O
2. OCCN1CCN(CCCN2c3ccccc3C=Cc3ccccc32)CC1
3. NC/C=C/C(=O)O
4. Nc1nc(N)c2nc(-c3ccccc3)c(N)nc2n1
5. CC(C(=O)O)c1ccc(CC2CCCC2=O)cc1 (configuration not stated)
6. CN=C(NC#N)NCCSCc1nc[nH]c1C

Result:
inactive
5.01 µM (active)
inactive
inactive
inactive
inactive

I have 7 compounds here; please give me Potency for each one.
1. CC(=O)Oc1cc(C(C)C)c(OCCN(C)C)cc1C
2. CCCOc1ccccc1-c1nc2n[nH]nc2c(=O)[nH]1
3. O=C(O)CP(=O)(O)O
4. COc1ccc(CN(CCN(C)C)c2ccccn2)cc1
5. FC(F)(F)c1ccccc1-n1ccnc1
6. CC(=O)Nc1nnc(S(N)(=O)=O)s1
7. c1cnc(N2CCN(Cc3ccc4c(c3)OCO4)CC2)nc1

Result:
1. inactive
2. inactive
3. inactive
4. inactive
5. inactive
6. inactive
7. inactive

I have 6 compounds here; please give me Potency for each one.
1. CCCCNC(=O)NS(=O)(=O)c1ccc(C)cc1
2. O=C(O)CCCCCCCC(=O)O
3. CN(C)C(=O)Oc1ccc[n+](C)c1
4. COCCCC/C(=N\OCCN)c1ccc(C(F)(F)F)cc1
5. CNC1(C)C2CCC(C2)C1(C)C (configuration not stated)
6. Nc1c2c(nc3ccccc13)CCCC2O (configuration not stated)

Result:
["inactive", "inactive", "inactive", "inactive", "inactive", "inactive"]

----------
Test system: CP305
assay method text: qHTS profiling for inhibitors of Plasmodium falciparum proliferation (AID 504749); further: nearly all actives have a fitted effect of over 60% in size
measurement context: P. falciparum in erythrocytes, SYBR Green DNA, 72 h; series mostly up to 28.7 µM
Method: NIH National Institute of Allergy and Infectious Diseases [NIAID] NIH Chemical Genomics Center [NCGC] […] Because mature erythrocytes lack DNA, only Plasmodium-derived DNA is detected. NCGC Assay Protocol Summary: The SYBR Green viability assay was adapted from a method described previously (Plouffe et al., 2008). […] The following morning, fluorescence intensity at 485(14) nm excitation and 535(25) nm emission wavelengths was measured on an EnVision (Perkin Elmer) plate reader. […]
Records with an inconclusive call do not appear. Calls of active or inactive are those of the source. The call rests on the fitted dose curve; in most records, active means well fitted inhibition curve with a large enough effect; inconclusive means small, poorly fitted or top-dose-only effect; inactive means flat fitted curve, though single readings scatter.
Outcome (select one): 1 (active), -1 (inactive)

structure notation	category label
COc1ccc([C@@H]2Sc3ccccc3N(CCN(C)C)C(=O)[C@@H]2OC(C)=O)cc1	-1

Q: For "CC[N+](C)(C)c1cccc(O)c1" , what call appears in the results of this test?
Result: -1

Q: For "NC(=Nc1ccccc1)Nc1ccccc1" , what call appears in the results of this test?
Result: -1

Q: For "CC(C)NNC(=O)c1ccncc1" , what call appears in the results of this test?
Result: -1
